- system.name: Mast/stem cell growth factor receptor Kit (Homo sapiens, UniProt P10721)
readout.name: pEC50
Give bare numbers, as −log10 of the molar value.

Problem: Any idea what its pEC50 is? The molecule is `Cc1ccc(NC(=O)c2cccc(C(F)(F)F)c2)cc1N1Cc2cnc(N)nc2N(C)C1=O`
Solution: 8.40

* * *

- system.name: Ephrin type-B receptor 4 (Homo sapiens)
- Sequence (P54760 whole entry): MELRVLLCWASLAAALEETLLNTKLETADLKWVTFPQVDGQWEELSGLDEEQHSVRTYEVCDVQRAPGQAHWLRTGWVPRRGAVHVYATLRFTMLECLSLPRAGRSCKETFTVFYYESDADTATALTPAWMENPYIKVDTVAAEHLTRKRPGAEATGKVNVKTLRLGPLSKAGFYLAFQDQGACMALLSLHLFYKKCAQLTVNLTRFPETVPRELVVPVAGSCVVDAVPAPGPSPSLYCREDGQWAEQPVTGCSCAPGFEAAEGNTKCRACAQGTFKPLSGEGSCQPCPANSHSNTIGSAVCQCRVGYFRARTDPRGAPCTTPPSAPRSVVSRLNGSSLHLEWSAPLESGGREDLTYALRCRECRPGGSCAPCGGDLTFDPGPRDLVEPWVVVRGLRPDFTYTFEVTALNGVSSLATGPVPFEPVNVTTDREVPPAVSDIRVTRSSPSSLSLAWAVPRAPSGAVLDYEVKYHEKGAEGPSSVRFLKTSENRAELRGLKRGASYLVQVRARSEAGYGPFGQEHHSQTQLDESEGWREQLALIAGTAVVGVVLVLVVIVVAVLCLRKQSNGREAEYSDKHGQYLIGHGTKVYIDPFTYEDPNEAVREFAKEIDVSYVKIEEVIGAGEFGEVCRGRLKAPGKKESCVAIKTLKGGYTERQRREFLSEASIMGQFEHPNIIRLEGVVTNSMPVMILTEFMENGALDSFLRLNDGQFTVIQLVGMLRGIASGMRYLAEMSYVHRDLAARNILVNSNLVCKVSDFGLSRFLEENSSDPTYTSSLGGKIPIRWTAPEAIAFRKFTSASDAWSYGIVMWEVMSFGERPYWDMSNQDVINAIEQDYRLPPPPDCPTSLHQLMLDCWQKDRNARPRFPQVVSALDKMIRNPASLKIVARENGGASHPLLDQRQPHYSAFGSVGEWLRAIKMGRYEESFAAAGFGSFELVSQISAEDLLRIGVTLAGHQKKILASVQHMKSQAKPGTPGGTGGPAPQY
- assay.comment: Inhibition of EphB4 by cellular assay
readout.name: EC50
Reply with the number, then its unit.

Problem: Any idea what its EC50 is? The molecule is `Cc1ccc(NC(=O)c2cccc(C(F)(F)F)c2)cc1N1Cc2cnc(N)nc2N(C)C1=O`
Solution: 4 nM

* * *

- system.name: UniProt:Q02763
readout.name: EC50 (nM)
Give bare numbers, in nM.

Problem: Any idea what its EC50 is? The compound is `Cc1ccc(NC(=O)c2cccc(C(F)(F)F)c2)cc1N1Cc2cnc(N)nc2N(C)C1=O`
Solution: 200

* * *

- system.name: Vascular endothelial growth factor receptor 1 (Homo sapiens, UniProt P17948)
readout.name: EC50 (µM)
One number for each entry, in µM.

Problem: Any idea what its EC50 is? The compound is `Cc1ccc(NC(=O)c2cccc(C(F)(F)F)c2)cc1N1Cc2cnc(N)nc2N(C)C1=O`
Solution: 0.236

* * *

- system.name: Platelet-derived growth factor receptor beta (Homo sapiens)
readout.name: EC50 (nM)
Answers are plain numbers, in nM.

Problem: Any idea what its EC50 is? The compound is `Cc1ccc(NC(=O)c2cccc(C(F)(F)F)c2)cc1N1Cc2cnc(N)nc2N(C)C1=O`
Solution: 6

* * *

- system.name: Vascular endothelial growth factor receptor 2 (Homo sapiens)
readout.name: EC50 (nM)
Numbers only, in nM.

Problem: Field: EC50 (Vascular endothelial growth factor receptor 2 (Homo sapiens)). Entry: CCN(CC)CCCCNc1ncc2cc(-c3cc(OC)cc(OC)c3)c(NC(=O)NC(C)(C)C)nc2n1 [PD-173074]
Solution: 250

* * *

- system.name: Platelet-derived growth factor receptor alpha (Homo sapiens)
readout.name: pEC50
Answers are plain numbers, as −log10 of the molar value.

Problem: Any idea what its pEC50 is? The compound is `Cc1ccc(NC(=O)c2cccc(C(F)(F)F)c2)cc1N1Cc2cnc(N)nc2N(C)C1=O`
Solution: 8.40

* * *

- system.name: Receptor-type tyrosine-protein kinase FLT3 (Homo sapiens)
- Sequence (P36888 whole entry): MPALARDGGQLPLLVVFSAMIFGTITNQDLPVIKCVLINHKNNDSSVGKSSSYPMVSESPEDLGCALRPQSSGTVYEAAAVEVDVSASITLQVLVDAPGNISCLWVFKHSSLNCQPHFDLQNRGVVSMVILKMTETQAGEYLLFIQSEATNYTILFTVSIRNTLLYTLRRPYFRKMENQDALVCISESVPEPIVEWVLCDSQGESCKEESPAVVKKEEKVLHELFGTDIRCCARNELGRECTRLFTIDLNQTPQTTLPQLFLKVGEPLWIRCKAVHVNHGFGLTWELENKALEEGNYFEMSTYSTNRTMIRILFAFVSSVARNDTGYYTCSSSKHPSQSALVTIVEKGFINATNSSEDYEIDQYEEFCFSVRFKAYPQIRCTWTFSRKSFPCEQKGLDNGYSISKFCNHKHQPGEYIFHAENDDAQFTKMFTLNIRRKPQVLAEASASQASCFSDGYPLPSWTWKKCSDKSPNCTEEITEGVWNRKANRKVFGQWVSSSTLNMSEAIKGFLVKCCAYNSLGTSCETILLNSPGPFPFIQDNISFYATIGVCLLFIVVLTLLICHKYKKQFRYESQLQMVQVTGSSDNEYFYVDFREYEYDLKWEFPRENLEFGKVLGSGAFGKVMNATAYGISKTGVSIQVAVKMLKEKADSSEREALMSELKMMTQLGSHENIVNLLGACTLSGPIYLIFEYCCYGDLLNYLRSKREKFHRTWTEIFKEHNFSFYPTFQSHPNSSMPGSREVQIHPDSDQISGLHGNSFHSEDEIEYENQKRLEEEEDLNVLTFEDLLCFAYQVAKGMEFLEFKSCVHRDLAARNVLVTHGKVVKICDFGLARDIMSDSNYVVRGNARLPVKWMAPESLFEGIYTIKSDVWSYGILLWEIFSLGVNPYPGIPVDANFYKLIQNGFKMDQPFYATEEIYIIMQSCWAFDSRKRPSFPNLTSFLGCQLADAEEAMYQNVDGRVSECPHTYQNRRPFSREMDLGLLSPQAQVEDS
readout.name: EC50

Problem: Any idea what its EC50 is? The compound is `Cc1ccc(NC(=O)c2cccc(C(F)(F)F)c2)cc1N1Cc2cnc(N)nc2N(C)C1=O`
Solution: > 2 µM

* * *

- system.name: Proto-oncogene tyrosine-protein kinase Src (Homo sapiens, UniProt P12931)
- assay.comment: Inhibition of Src by cellular assay
readout.name: EC50 (nM)
Answers are plain numbers, in nM.

Problem: Any idea what its EC50 is? The compound is `Cc1ccc(NC(=O)c2cccc(C(F)(F)F)c2)cc1N1Cc2cnc(N)nc2N(C)C1=O`
Solution: 13

* * *

- system.name: Ephrin type-A receptor 3 (Homo sapiens, UniProt P29320)
- assay.comment: Inhibition of EphA3 by cellular assay
readout.name: pEC50
Give bare numbers, as −log10 of the molar value.

Problem: Field: pEC50 (Ephrin type-A receptor 3 (Homo sapiens, UniProt P29320)). Entry: `Cc1ccc(NC(=O)c2cccc(C(F)(F)F)c2)cc1N1Cc2cnc(N)nc2N(C)C1=O`
Solution: 8.70

* * *

- system.name: Fibroblast growth factor receptor 1 (Homo sapiens, UniProt P11362)
readout.name: pEC50
Numbers only, as −log10 of the molar value.

Problem: Field: pEC50 (Fibroblast growth factor receptor 1 (Homo sapiens, UniProt P11362)). Entry: `Cc1ccc(NC(=O)c2cccc(C(F)(F)F)c2)cc1N1Cc2cnc(N)nc2N(C)C1=O`
Solution: 7.10

* * *

- system.name: UniProt:P29597
- assay.comment: Inhibition of Tyk2 by cellular assay
pEC50: −log10 of the molar value.
readout.name: pEC50

Problem: Any idea what its pEC50 is? The molecule is `Cc1ccc(NC(=O)c2cccc(C(F)(F)F)c2)cc1N1Cc2cnc(N)nc2N(C)C1=O`
Solution: < 5.70

* * *

- system.name: Proto-oncogene tyrosine-protein kinase receptor Ret (Homo sapiens)
readout.name: EC50 (nM)
Numbers only, in nM.

Problem: Any idea what its EC50 is? The compound is `Cc1ccc(NC(=O)c2cccc(C(F)(F)F)c2)cc1N1Cc2cnc(N)nc2N(C)C1=O`
Solution: 77

Source: ChEMBL document CHEMBL1149823
